Value source: PubChem BioAssay (NCI)

System: SK-OV-3 ovarian
assay-summary: NCI-60 one-dose screen, 48 h
conditions: 10 µM
This is part of a sample that, as a whole, favours compounds with a hit. Of some 83,000 tested, about 20% had one in any assay. The source made the active and inactive calls. The calls were made as follows: active = growth percent below 10; inactive = the rest.
Outcomes: active, inactive

compound	discrete-label
CCN(CC)CCCC(C)N=C(C1=C(C(=NC(C)CCCN(CC)CC)c2cccc(OC)c2)C(=O)NC1=O)c1cccc(OC)c1 (stereo not given)	active
CC(=O)N[C@H](C(=O)N[C@@H](CCCNC(=N)N)C(=O)N[C@@H](CCCCN)C(=O)N[C@@H](CCCNC(=N)N)C(=O)N[C@]1(C)CCC/C=C\CCC[C@@](C)(C(=O)N[C@@H](CC(C)C)C(=O)N[C@@H](CC(C)C)C(=O)N[C@@H](CCC(N)=O)C(=O)N[C@@H](CCC(=O)O)C(=O)N[C@@H](CCCNC(=N)N)C(=O)N[C@@H](CCC(=O)O)C(=O)N[C@@H](CC(C)C)C(=O)N[C@H](C(=O)N[C@@H](CCC(=O)O)C(N)=O)C(C)C)NC(=O)[C@H](CCCNC(=N)N)NC(=O)[C@H](CC(C)C)NC1=O)C(C)C	inactive
CN(C)CCCOc1ccccc1NC1=C(Cl)C(=O)C(Nc2ccccc2OCCCN(C)C)=C(Cl)C1=O	active
O=C(Nc1cc(Cl)cc2c1-c1ccc(Cl)cc1C2O)C(Cl)Cl (stereo not given)	inactive
COc1cc(-c2nn(-c3ccc(NC(=O)NCCCNC(=O)c4ccccc4)cc3)cc2-c2ccncc2)ccc1Cl	inactive

---

Documented growth across a set of compounds
Test system: HCT-116 colon
assay-summary: NCI-60 one-dose screen, 48 h (100 = growth as untreated, 0 = no growth, -100 = all killed)
conditions: 10 µM
This is part of a sample that, as a whole, favours compounds with a hit. Of some 83,000 tested, about 20% had one in any assay.

compound	unit-tag	growth
Cc1noc(C)c1CSc1ccccc1C(=O)N1CCN(c2cccc(C(F)(F)F)c2)CC1	%	55.3
CCN(CC)CC(=O)N(CC)c1ccc(C)c(Cl)c1	%	98.7
CC(C)(C)OC(=O)CC(S(=O)(=O)c1ccccc1)S(=O)(=O)c1ccccc1	%	82.5
O=C(O)c1cc([N+](=O)[O-])ccc1Oc1ccccc1	%	102
COc1ccc([C@H]2[C@H](C(=O)Nc3cccnc3)c3ccccc3C(=O)N2c2ccccc2)cc1	%	49.4
COc1cc2cc(Oc3ccc(NC(=O)Nc4ccc(C(F)(F)F)cc4)cc3)c(C)nc2cc1OC	%	47.2
COc1ccc(N=Nc2cc(OC)c(OC)c(OC)c2)cc1	%	80.5
CCOC(=O)c1sc2ncnc(Nc3ccc(NC(=O)Nc4ccc(Cl)cc4)cc3)c2c1C	%	17
O=C(CCl)Nc1ccc(Cc2ccc(NC(=O)CCl)cc2)cc1	%	-56.8
Cc1ccc(C(SCC(N)C(=O)O)(c2ccc(C)cc2)c2ccc(C)cc2)cc1 (stereo not given)	%	-25.5
COc1ccc(C(=O)c2cc3c(OC)c(OC)c(OC)cc3[nH]2)cc1	%	28.1
CCOC(=O)CSc1nc(-c2cc(OC)ccc2OC)cc(-c2ccc(OC)cc2)c1C#N	%	67.3
COc1cc2c(Nc3ccc(-c4ccc(N)cc4)cc3)ncnc2c(OC)c1OC	%	58.3
CCC(=O)OC1CCC2C3CCC(=O)OC3C(C)(CCC(=O)O)CC12C (stereo not given)	%	5.1
CCCCC1(O)CCCCC1	%	102
CCCN(CCC)C(=O)[C@H](CC)[C@@H]1CC[C@@H](C)[C@@H]([C@H](C)[C@@H](O)[C@@H](C)C(=O)[C@H](CC)C2O[C@]3(C=C[C@@H](O)[C@]4(CC[C@@](C)([C@H]5CC[C@](O)(CC)[C@H](C)O5)O4)O3)[C@H](C)C[C@@H]2C)O1 (stereo not given in full)	%	6.43
CCN(CC)CCNc1ccc(C)c2sc3cc(Cl)ccc3c(=O)c12	%	11.4
COc1ccc2nc(-c3ccc(Cl)cc3)cc(-c3nnc(SC/C(=N\O)c4ccccc4)n3-c3ccccc3)c2c1	%	67.9
COc1cc2c3c(n([C@@H]4CCOC4)c(=O)c2cc1OC)-c1cc2c(cc1C3=O)OCO2	%	27.1
N#CC1=C(N)Oc2cc(N)ccc2C1c1cccnc1 (stereo not given)	%	88.3
O=C(N/N=C/c1ccc(Cl)cc1)c1ccccc1Nc1cccc(C(F)(F)F)c1	%	66.1
Cc1[nH]c2ccccc2c1/C=N/Nc1ncnc2sc3c(c12)CCN(CC(=O)OC(C)(C)C)C3	%	40.8
Cc1ccc(C(C)C)c(O)c1NC(=O)OC(C)C	%	91.9
CC1=CC2C(C(O)CC3(C)C2CC(C)C32OCOC23COCO3)C2(C)C/C(=C/O)C(=O)C=C12 (stereo not given)	%	-70.2
N=C1S/C(=C/c2ccc(-c3ccc4c(c3)C(=O)NC4=O)o2)C(=O)N1c1ccc(Br)cc1	%	31.8
O=C(c1ccccc1)N(C(=O)c1ccccc1)N1CCCC1	%	106
O=C1CC(=O)N(C(=O)c2nn(-c3ccc(Cl)cc3)cc2O)N1	%	22.1
Clc1nc2ccccc2cc1Cn1nnc(Cc2ccccc2)n1	%	35.1
C[C@@H](C[C@H](CCO)c1ccccc1)c1ccc2ccccc2c1	%	-94.3
O=C(CCC(C(=O)c1ccccc1)c1ccccc1)c1ccccc1 (stereo not given)	%	50.3
COc1cc(-c2csc(NC(=O)Nc3ccc(Cl)c(C(F)(F)F)c3)n2)cc(OC)c1OC	%	-19.6
CCN(CCCNc1cc2c(c(N)c1S(=O)(=O)O)C(=O)c1ccccc1C2=O)c1ccccc1	%	90
O=C1c2c(c3c4ccccc4n(CCCCCCN4CCOCC4)c3c3[nH]c4ccccc4c23)C(=O)N1O	%	-16
O=C(CCCCNC(=O)c1nc(-c2ccccc2)n(-c2ccccc2)n1)NO	%	54.6
COc1cc2cc(Oc3ccc(NC(=O)c4cccc(C(F)(F)F)c4)cc3)c(C)nc2cc1OC	%	18.1
COC(=O)c1c[nH]c2cc(OC(C)C)c(OC(C)C)cc2c1=O	%	102
COc1cc(-c2csc(NC(=O)Nc3cc(C(F)(F)F)cc(C(F)(F)F)c3)n2)cc(OC)c1OC	%	0.288
CCCc1nc(C(C)(C)O)c(C(=O)O)n1Cc1ccc(-c2ccccc2-c2nn[nH]n2)cc1	%	106
Cc1cc(=O)n2nnc3cc(Cl)c(Cl)cc3n12	%	91.8
Clc1nc2ccc(Br)cc2cc1-c1nc2ccccc2[nH]1	%	77.8
